In this section, each of the compounds is paired with its reported log10 half-life at 5 μM.
test: In vitro plasma stability, rat plasma; assay type: in vitro ADME; conditions: male, pH 7.4, 5 μM, 37° C., sampling 0-360 minutes, read-out: T1/2 Rat
log10 half-life at 5 μM, min

Use these answered entries as a reference point.
[
  {
    "compound": "COC(=O)c1ccc(C2=NN(C)C(=O)C2(C)NO)cc1 (stereo not drawn)",
    "log10 half-life at 5 μM": 0.48
  },
  {
    "compound": "CN(C)C(=O)c1ccc(C2=NN(C)C(=O)C2(C)NO)cc1 (stereo not drawn)",
    "log10 half-life at 5 μM": 2.21
  },
  {
    "compound": "CN1N=C(C(C)(C)C)C(NO)(c2ccccc2)C1=O (stereo not drawn)",
    "log10 half-life at 5 μM": 1.72
  },
  {
    "compound": "CN1N=C(c2ccc(S(C)(=O)=O)c(S(C)(=O)=O)c2)C(C)(NO)C1=O (stereo not drawn)",
    "log10 half-life at 5 μM": 1.77
  },
  {
    "compound": "CN1N=C(c2ccccc2[S+](C)[O-])C(C)(NO)C1=O (stereo not drawn)",
    "log10 half-life at 5 μM": 1.56
  },
  {
    "compound": "CO/N=C(\\C)C1(NO)C(=O)N(C)N=C1c1ccc(F)cc1 (stereo not drawn)",
    "log10 half-life at 5 μM": 0.78
  }
]

The compound listed as CCOc1cc(F)ccc1C1=NN(C)C(=O)C1(C)NO (stereo not drawn) has a reported log10 half-life at 5 μM of 2.06

Entry CN1N=C(c2ccc([S+](C)[O-])cc2)C(C)(NO)C1=O (stereo not drawn) — recorded log10 half-life at 5 μM = 1.94

====

Assay: In vitro plasma stability, rat plasma
Type: in vitro ADME
Settings: male, pH 7.4, 5 μM, 37° C., sampling 0-360 minutes, read-out: T1/2 Rat
Protocol: Certain compounds from Table 1 were tested for their stability in plasma. The assay system comprised plasma from rat, dog or human (at least 3 donors, male, pooled) at pH 7.4, and (ii) an anticoagulant (sodium heparin or sodium citrate). Each test compound (5 μM) was incubated in plasma at 37° C. on a THERMOMIXER® with shaking. […] Plasma half-lives (T1/2) of the test compounds were determined from graphs of the percent remaining values using the peak area response ratio.
Consider the following compounds and their measured half-life at 5 μM readings.
Write the number in min without appending the unit.

Below, 3 compounds whose answers are already recorded.
[
  {
    "compound": "CN1N=C(c2ccc(S(C)(=O)=O)c(N(C)C)c2)C(C)(NO)C1=O (stereo not shown)",
    "half-life at 5 μM / min": 63
  },
  {
    "compound": "CN1N=C(c2ccccc2Cl)C(C)(NO)C1=O (stereo not shown)",
    "half-life at 5 μM / min": 61
  },
  {
    "compound": "Cc1cc(C2=NN(C)C(=O)C2(C)NO)cc(C)c1S(C)(=O)=O (stereo not shown)",
    "half-life at 5 μM / min": 85
  }
]

Value of measured half-life at 5 μM for the entry COc1cc(C2=NN(C)C(=O)C2(C)NO)ccc1S(C)(=O)=O (stereo not shown) : 62

What the record says about CN1N=C(c2ccc(OC(F)(F)F)cc2)C(C)(NO)C1=O (stereo not shown) : half-life at 5 μM is 80

# half-life at 5 μM of COc1ccc(C2(NO)C(=O)N(C)N=C2C)cc1 (stereo not shown) = 25

Sample CC1=NN(c2ccc(S(C)(=O)=O)cc2)C(=O)C1(C)NO (stereo not shown) ; half-life at 5 μM observed: 175
